- assay: In vivo pharmacokinetics in rats
- Set-up: species or system rat
- condition.summary: male, rat, plasma, po; SD rats, orally, 10 mg/kg, Mean
Counter-ions that a name gives are not always drawn.

molecule: COCCOc1ccc2c(c1)ncn2-c1ccc(NC(=O)Nc2cc(C(C)(C)C)n[nH]2)cc1 [Compound 77 Mesylate]
Tmax [h]: 2

----------
- assay: In vivo pharmacokinetics in rats
- Parameters: species or system rat
- condition.summary: male, SD, rat, plasma, iv, 5 mg/kg, intravenously, individual animals 101-103
Counter-ions that a name gives are not always drawn.
readout.kind: clearance

compound: COCCOc1ccc2c(c1)ncn2-c1ccc(NC(=O)Nc2cc(C(C)(C)C)n[nH]2)cc1 [Compound 77 Mesylate]
measured.value: 5.5 mL/min/kg

----------
- assay: In vivo pharmacokinetics in rats
- Parameters: species or system rat
- condition.summary: male, SD, rat, plasma, iv, 5 mg/kg, intravenously, 5 mg/kg, individual animals 101-103, read-out: Vss
Structures can show the parent of a compound that is named as a salt.

compound: COCCOc1ccc2c(c1)ncn2-c1ccc(NC(=O)Nc2cc(C(C)(C)C)n[nH]2)cc1 [Compound 77 Mesylate]
Vd: 1.46 L/kg

----------
GI50 reference
- Test system: MOLM-13 (FLT3 ITD+/− mutant type)
- assay: In vitro growth inhibition (GI50), MOLM-13
- Format: cell-based, human
- condition.summary: Homo sapiens, MOLM-13; Cell lines of leukemia; read-out: GI 50 MOLM-13 FLT3 (ITD+/−)

compound: Cc1cc(NC(=O)Nc2cc(C(C)(C)C)on2)ccc1-n1cnc2ccccc21 [Compound 37]
GI50: 100 to 1000 nM
--
compound: O=C(Nc1ccc(-n2cnc3ccccc32)cc1)Nc1nccs1 [Compound 60]
GI50: > 1000 nM
--
compound: CC(C)(C)c1cc(NC(=O)Nc2ccc(-n3cnc4ccccc43)cc2)[nH]n1 [Compound 68]
GI50: 0.1 to 1 nM
--
compound: COCC(O)COc1ccc2c(c1)ncn2-c1ccc(NC(=O)Nc2cc(C(C)(C)C)n[nH]2)cc1 (centres unmarked) [Compound 80]
GI50: 0.1 to 1 nM
--
compound: CC(C)Oc1ccc2c(c1)ncn2-c1ccc(NC(=O)Nc2cc(C(C)(C)C)n[nH]2)cc1 [Compound 74]
GI50: 0.1 to 1 nM
--
compound: Cc1ccc2c(c1)ncn2-c1ccc(NC(=O)Nc2cc(C(C)(C)C)on2)cc1 [Compound 24]
GI50: 1 to 10 nM
--
compound: CCCCCCOc1ccc2c(c1)ncn2-c1ccc(NC(=O)Nc2cc(C(C)(C)C)on2)cc1 [Compound 7]
GI50: 0.1 to 1 nM
--
compound: COc1ccc2c(c1)ncn2-c1ccc(NC(=O)Nc2cc(C(C)(C)C)n[nH]2)cc1 [Compound 71]
GI50: 0.01 to 0.1 nM
--
compound: CC(C)(C)c1cc(NC(=O)Nc2cc(F)c(-n3cnc4ccccc43)c(F)c2)no1 [Compound 40]
GI50: 100 to 1000 nM
--
compound: Cc1cc(NC(=O)Nc2ccc(-n3cnc4ccccc43)cc2)no1 [Compound 2]
GI50: > 1000 nM
--
compound: CC(C)(C)c1cc(NC(=O)Nc2ccc(-n3cnc4cc(OCCO)ccc43)cc2)no1 [Compound 11]
GI50: 0.01 to 0.1 nM
--
compound: CC(C)(C)c1cc(NC(=O)Nc2ccc(-n3cnc4cc(OCC5CCCCO5)ccc43)cc2)[nH]n1 (centres unmarked) [Compound 87]
GI50: 0.1 to 1 nM
--
compound: CC(C)(C)c1cc(NC(=O)Nc2ccc(-n3cnc4ccccc43)cc2)n(-c2ccccn2)n1 [Compound 110]
GI50: 10 to 100 nM
--
compound: CC(C)(C)c1nnc(NC(=O)Nc2ccc(-n3cnc4ccccc43)cc2)s1 [Compound 63]
GI50: 1 to 10 nM
--
compound: O=C(Nc1ccc(-n2cnc3ccccc32)cc1)Nc1ccon1 [Compound 1]
GI50: > 1000 nM
--
compound: CC(C)(C)c1cc(NC(=O)Nc2ccc(-n3cnc4cc(OC(F)(F)F)ccc43)cc2)no1 [Compound 21]
GI50: 0.1 to 1 nM
--
compound: CC(C)(C)c1cc(NC(=O)Nc2ccc(-n3cnc4cc(OCCN5CCCCC5)ccc43)cc2)[nH]n1 [Compound 90]
GI50: 0.1 to 1 nM

----------
- Test system: RS4; 11 (FLT3 wild type)
- assay: In vitro growth inhibition (GI50), RS4; 11
- Format: cell-based, human
- condition.summary: Homo sapiens, RS4-11; Cell lines of leukemia; read-out: GI 50 RS4: 11 FLT3 (WT)
readout.kind: GI50

compound: CC1(COc2ccc3c(c2)ncn3-c2ccc(NC(=O)Nc3cc(C(C)(C)C)on3)cc2)COC1 [Compound 9]
tested.target: RS4; 11 (FLT3 wild type)
readout.kind: GI50
measured.value: > 1000 nM
--
compound: Cc1ccc2c(c1)ncn2-c1ccc(NC(=O)Nc2cc(C(C)(C)C)on2)cc1 [Compound 24]
tested.target: RS4; 11 (FLT3 wild type)
readout.kind: GI50
measured.value: 100 to 1000 nM
--
compound: CC(C)(C)c1cc(NC(=O)Nc2ccc(-n3cnc4cc(OCCCCc5nnnn5C5CCCCC5)ccc43)cc2)[nH]n1 [Compound 94]
tested.target: RS4; 11 (FLT3 wild type)
readout.kind: GI50
measured.value: > 1000 nM
--
compound: Cc1cc2ncn(-c3ccc(NC(=O)Nc4cc(C(C)(C)C)on4)cc3)c2cc1C [Compound 32]
tested.target: RS4; 11 (FLT3 wild type)
readout.kind: GI50
measured.value: > 1000 nM

----------
- assay: In vivo pharmacokinetics in rats
- Parameters: species or system rat
- condition.summary: male, SD, rat, plasma, iv, 5 mg/kg, intravenously, Mean
Structures can show the parent of a compound that is named as a salt.
readout.kind: clearance (mL/min/kg)

molecule: COCCOc1ccc2c(c1)ncn2-c1ccc(NC(=O)Nc2cc(C(C)(C)C)n[nH]2)cc1 [Compound 77 Mesylate]
measured.value: 5.73

----------
- System: HCC827 (EGFR exon19 E746-A750 deletion)
- assay: In vitro growth inhibition (GI50), HCC827
- Assay type: cell-based
- condition.summary: Homo sapiens; HCC827, EGFR DelE746-A750

record.smiles: CC(C)(C)c1cc(NC(=O)Nc2ccc(-n3cnc4cc(OCCN5CCOCC5)ccc43)cc2)[nH]n1
GI50: > 2500 nM
--
record.smiles: CC(C)(C)c1cc(NC(=O)Nc2ccc(-n3cnc4ccc(OCCN5CCOCC5)cc43)cc2)no1
GI50: > 2500 nM
--
record.smiles: CC(C)(C)c1cc(NC(=O)Nc2ccc(-n3cnc4ccccc43)cc2)[nH]n1
GI50: > 2500 nM
--
record.smiles: COCCOc1ccc2c(c1)ncn2-c1ccc(NC(=O)Nc2cc(C(C)(C)C)n[nH]2)cc1
GI50: > 2500 nM
--
record.smiles: CC(C)(C)c1cc(NC(=O)Nc2ccc(-n3cnc4cc(OCCO)ccc43)cc2)no1
GI50: > 2500 nM
--
record.smiles: CC(C)(C)c1cc(NC(=O)Nc2ccc(-n3cnc4cc(OCCO)ccc43)cc2)[nH]n1
GI50: > 2500 nM

----------
- System: RS4; 11 (FLT3 wild type)
- assay: In vitro growth inhibition (GI50), RS4; 11
- Format: cell-based, human
- condition.summary: Homo sapiens, RS4-11; Cell lines of leukemia; read-out: GI 50 RS4: 11 FLT3 (WT)
GI50 reference

record.smiles: CC(C)(C)c1cc(NC(=O)Nc2ccc(-n3cnc4cc(O)ccc43)cc2)no1
tested.target: RS4; 11 (FLT3 wild type)
GI50: 100 to 1000 nM

record.smiles: Cc1cc(F)cc2ncn(-c3ccc(NC(=O)Nc4cc(C(C)(C)C)n[nH]4)cc3)c12
tested.target: RS4; 11 (FLT3 wild type)
GI50: > 1000 nM

record.smiles: COCCOc1ccc2ncn(-c3ccc(NC(=O)Nc4cc(C(C)(C)C)on4)cc3)c2c1
tested.target: RS4; 11 (FLT3 wild type)
GI50: 100 to 1000 nM

record.smiles: CN(C)c1ncnc2ncn(-c3ccc(NC(=O)Nc4cc(C(C)(C)C)on4)cc3)c12
tested.target: RS4; 11 (FLT3 wild type)
GI50: 100 to 1000 nM

----------
- assay: In vivo pharmacokinetics in rats
- Design: species or system rat
- condition.summary: male, SD, rat, plasma, iv, 5 mg/kg, intravenously, 5 mg/kg, Mean, read-out: Vz
- Experimental: The pharmacokinetic experiments in rats were performed using compound 77 of the present invention as a representative example. […] The pharmacokinetic parameters (AUC(0-t), AUC(0-∞), T1/2, MRT(0-∞), Cmax, Tmax and F) were calculated using WinNonlin Professional v5.2 (Pharsight USA). In addition, the bioavailability (F) was calculated by the following formula.
Counter-ions that a name gives are not always drawn.
readout.kind: Vd (L/kg)

compound: COCCOc1ccc2c(c1)ncn2-c1ccc(NC(=O)Nc2cc(C(C)(C)C)n[nH]2)cc1 [Compound 77 Mesylate]
uom: L/kg
measured.value: 1.8
